assay: in vivo; settings: ip or sc, read-out: acute LD50
Observed property: LD50 (mg/kg)

Compound	Measured result
CN(Cc1cnc2nc(N)nc(N)c2n1)c1ccc(C(=O)N[C@@H](CCC(=O)O)C(=O)O)cc1 [Methotrexate, reference compound]	96
